- Test system: SK-MEL-2
- TEST_PROTOCOL: NCI tumour cell line growth inhibition, 48 h
Activity calls are given as the source filed them. No stated cut-off is given here; in the data, active = GI50 up to about 1.1 µM and inactive = higher.
Known GI50 of a selection of molecules

MOLECULE | GI50
Cn1cnc(CCc2ccccc2)n1 | > 100 µM (inactive)
CCC12C=CCN(CCc3c([nH]c4ccccc34)/C=C\1)C2 (stereo not drawn) | > 100 µM (inactive)
CCCNCC(O)CNc1ccc(NCC(O)CNCCC)c2c1C(=O)c1ccccc1C2=O (stereo not drawn) | 2.16 µM (inactive)
NC(CCCCNC(=O)CNC(=O)OCc1ccccc1)C(=O)NC(CCCCNC(=O)CNC(=O)OCc1ccccc1)C(=O)NC(CCCCNC(=O)CNC(=O)OCc1ccccc1)C(=O)NC(CCCCNC(=O)CNC(=O)OCc1ccccc1)C(=O)NC(CCCCNC(=O)CNC(=O)OCc1ccccc1)C(=O)NC(CCCCNC(=O)CNC(=O)OCc1ccccc1)C(=O)O (stereo not drawn) | > 75 µM (inactive)
OC12CCC3(OC4CCCCO4)c4ccccc4C3C1c1ccccc12 (stereo not drawn) | > 100 µM (inactive)
COc1ccc(CCCC(=O)O)c(C)c1 | 39 µM (inactive)
C/C(=N/O)c1ccc2c(c1)/C(=N/O)c1cc(/C(C)=N/O)ccc1-2 | 23.9 µM (inactive)
CN(C)/N=N/c1cccc(C(N)=O)c1 | > 100 µM (inactive)

# input Given the molecule O=C(/C=C/c1ccc(O)c(O)c1)NC(COC(=O)/C=C/c1ccc(O)c(O)c1)C(=O)O (stereo not drawn) , what is its reported GI50?
# output > 100 µM (inactive)

# input Can you check Cc1ccc(S(=O)(=O)N2CCN(S(=O)(=O)c3ccc(C)cc3)Cc3ccccc3C2)cc1 next?
# output > 100 µM (inactive)

# input Can you check COC(CNC(=O)CNC(=O)c1ccc(C(F)(F)F)cc1)OC next?
# output > 100 µM (inactive)

# input Can you check C[C@H](c1ccccc1)N1C(=O)[C@@H](OCc2ccccc2)[C@H]1[C@H](COC(=O)COCc1ccccc1)OCc1ccccc1 next?
# output > 100 µM (inactive)

FYI, the data here is from ChEMBL document CHEMBL1201862.
